Where do these numbers come from? They come from patent US9493537B2.

test_protocol: Biodistribution in B16/F1 melanoma-bearing C57 mice
Type: in vivo
applied_conditions: female, C57, mouse, intestines, iv, 0.037 MBq, total radioactivity, 2 h post-injection; read-out: Intestines, percent injected dose

compound	tissue uptake dose at 2 h / %ID
CCCC[C@H](NC(=O)CN1CCN(CC(=O)O)CCN(CC(=O)O)CCN(CC(=O)O)CC1)C(=O)N[C@H]1CC(=O)NCCCC[C@@H](C(N)=O)NC(=O)[C@H](Cc2c[nH]c3ccccc23)NC(=O)[C@H](CCCNC(=N)N)NC(=O)[C@@H](Cc2ccccc2)NC(=O)[C@H](Cc2c[nH]cn2)NC1=O [^111In-DOTA-Nle-CycMSHhex, metal not drawn]	1.4
